- Target entity: EPHB2 (UniProt P29323)
- Sequence (P29323 whole entry, looked up): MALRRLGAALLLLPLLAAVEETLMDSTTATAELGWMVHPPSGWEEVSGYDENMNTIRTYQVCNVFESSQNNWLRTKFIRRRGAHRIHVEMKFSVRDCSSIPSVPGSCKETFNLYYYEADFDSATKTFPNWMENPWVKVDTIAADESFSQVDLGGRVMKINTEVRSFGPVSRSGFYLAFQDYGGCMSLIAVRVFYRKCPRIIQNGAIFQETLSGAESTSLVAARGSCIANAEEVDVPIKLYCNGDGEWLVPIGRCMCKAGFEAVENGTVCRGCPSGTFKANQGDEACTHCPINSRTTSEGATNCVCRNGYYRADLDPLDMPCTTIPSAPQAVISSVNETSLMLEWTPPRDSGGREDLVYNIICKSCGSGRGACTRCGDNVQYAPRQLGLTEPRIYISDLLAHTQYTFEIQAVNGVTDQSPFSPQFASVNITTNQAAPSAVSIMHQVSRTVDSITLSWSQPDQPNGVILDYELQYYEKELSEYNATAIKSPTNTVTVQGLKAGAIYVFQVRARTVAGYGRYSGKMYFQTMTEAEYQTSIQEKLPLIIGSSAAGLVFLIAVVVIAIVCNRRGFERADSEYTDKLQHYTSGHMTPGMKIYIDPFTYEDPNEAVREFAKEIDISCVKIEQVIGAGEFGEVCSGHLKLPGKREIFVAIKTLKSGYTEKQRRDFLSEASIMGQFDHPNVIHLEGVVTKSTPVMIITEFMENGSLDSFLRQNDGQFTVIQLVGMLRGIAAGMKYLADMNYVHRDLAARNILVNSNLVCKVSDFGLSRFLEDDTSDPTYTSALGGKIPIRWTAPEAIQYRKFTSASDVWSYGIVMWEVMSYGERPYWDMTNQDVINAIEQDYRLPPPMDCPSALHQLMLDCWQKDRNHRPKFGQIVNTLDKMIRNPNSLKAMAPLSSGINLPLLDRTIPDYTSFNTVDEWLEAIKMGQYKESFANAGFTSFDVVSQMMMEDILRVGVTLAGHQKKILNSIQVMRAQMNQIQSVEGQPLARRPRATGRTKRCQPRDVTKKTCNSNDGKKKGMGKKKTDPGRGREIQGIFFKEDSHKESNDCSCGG
- Protocol description: phosphorylation enrichment, bacterial display (enrichment ratio); higher = better substrate or ligand; peptides without Tyr show the background;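 further: 11-residue human phosphosite peptides and single-mutation variants displayed on the E. coli surface, counted by deep sequencing, each peptide's frequency after selection divided by its frequency in the unselected input library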;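 further: frequency after pTyr selection over input frequency; kinase dosed for 20-30% of maximal phosphorylation in three min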
Heads up, the class ranges for phosphorylation enrichment are LOW (below 0.5), MEDIUM (0.5 to below 0.9), HIGH (0.9 or more)

Past entries and their recorded results:
Monomer sequence	Class name
IVFTSYFLTIL [TAS2R16_Y239]	MEDIUM
ANAYIYDVQLP [L1CAM_Y420_V421D]	HIGH
TVQVAYYTMMM [SPATA17_Y83]	HIGH
VHKEGYNKLNQ [ZNF676_Y98]	LOW
DAICYYRMENA [NPHS2_Y195]	MEDIUM

QUERY: Which phosphorylation enrichment band matches SAPDSYIRIGN [SLC38A4_Y27_G29R] ?
RESULT: LOW

QUERY: Which phosphorylation enrichment band matches LIHLHYIRKDY [BBS4_Y43] ?
RESULT: MEDIUM

QUERY: Which phosphorylation enrichment band matches NVTRKYTRQIL [MAP3K2_Y463] ?
RESULT: LOW

QUERY: Which phosphorylation enrichment band matches TPIFPYLLPKS [PLD2_Y580_T577I_YF] ?
RESULT: LOW

QUERY: Which phosphorylation enrichment band matches SDQRRYSLIDR [CLIP2_Y972] ?
RESULT: LOW

QUERY: Which phosphorylation enrichment band matches AEFGLYAAMVR [VSX2_Y222_G223A_YF] ?
RESULT: HIGH

====

- Target entity: Fes (UniProt P07332)
- Sequence (P07332 whole entry, looked up): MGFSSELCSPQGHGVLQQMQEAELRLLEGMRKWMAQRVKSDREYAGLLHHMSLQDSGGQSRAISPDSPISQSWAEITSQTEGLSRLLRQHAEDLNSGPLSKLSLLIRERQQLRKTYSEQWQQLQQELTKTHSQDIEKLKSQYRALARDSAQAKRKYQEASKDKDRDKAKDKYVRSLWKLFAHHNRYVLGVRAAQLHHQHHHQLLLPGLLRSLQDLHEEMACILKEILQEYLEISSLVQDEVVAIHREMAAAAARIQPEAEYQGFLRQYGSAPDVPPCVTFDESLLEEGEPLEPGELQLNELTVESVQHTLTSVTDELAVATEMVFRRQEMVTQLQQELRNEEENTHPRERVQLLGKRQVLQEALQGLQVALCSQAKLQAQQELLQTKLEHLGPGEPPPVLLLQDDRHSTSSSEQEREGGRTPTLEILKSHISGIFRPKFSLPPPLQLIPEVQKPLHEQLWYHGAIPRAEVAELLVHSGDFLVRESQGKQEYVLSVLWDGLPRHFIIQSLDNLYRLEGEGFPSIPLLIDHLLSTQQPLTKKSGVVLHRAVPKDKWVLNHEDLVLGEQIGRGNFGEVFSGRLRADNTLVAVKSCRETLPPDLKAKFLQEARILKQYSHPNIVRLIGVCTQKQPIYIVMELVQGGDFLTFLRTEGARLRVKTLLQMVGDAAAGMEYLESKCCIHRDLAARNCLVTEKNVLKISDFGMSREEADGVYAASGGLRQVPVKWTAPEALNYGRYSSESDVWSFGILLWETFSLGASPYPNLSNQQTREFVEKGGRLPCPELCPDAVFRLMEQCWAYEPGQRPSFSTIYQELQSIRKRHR
- Protocol description: phosphorylation enrichment, bacterial display (enrichment ratio); higher = better substrate or ligand; peptides without Tyr show the background
Parameter measured: phosphorylation enrichment
Just the number.

As a guide, the following entries are already answered.
Monomer sequence	Target entity	phosphorylation enrichment
AVVEPYNSLLT [TUBA1A_Y185_I188L]	Fes (UniProt P07332)	0.891
IHFAIYLLKYS [ARMC9_Y107]	Fes (UniProt P07332)	1.16
IINENYDYLKG [NUP98_Y1664]	Fes (UniProt P07332)	0.871
KRPAVYIDEEA [EPM2A_Y304]	Fes (UniProt P07332)	1.07
LNPFIYSLRNC [OR1A2_Y288_W293C]	Fes (UniProt P07332)	2.72
ELTAKYLNYYR [P3H4_Y181_Q186R]	Fes (UniProt P07332)	0.748
LSSNLYFRWLT [CNGA3_Y168_P163L_YF]	Fes (UniProt P07332)	1.64
PPAPRCHHSAV [LZTR1_Y119_Y119C]	Fes (UniProt P07332)	2.01

QUERY: Consider the sequence CLAKMYFSAVE [CP_Y539_D544E_YF] and give its recorded phosphorylation enrichment.
RESULT: 1.35

QUERY: Consider the sequence DIMDLYNQPEP [IL36A_Y96] and give its recorded phosphorylation enrichment.
RESULT: 1.21

QUERY: Consider the sequence ISSLLYELLEE [TRPC6_Y896_R895L] and give its recorded phosphorylation enrichment.
RESULT: 1.94

====

Reported phosphorylation enrichment is given for each of the following sequences.
- System: c-Src
- Protocol description: phosphorylation enrichment, bacterial display (enrichment ratio); higher = better substrate or ligand; peptides without Tyr show the background

QUERY: Consider the sequence LRFDSYSSFCN [SLC20A2_Y433_YF] and give its recorded phosphorylation enrichment.
RESULT: 0.642

QUERY: Consider the sequence SVVVPYEPPED [TP53_Y220_V225D] and give its recorded phosphorylation enrichment.
RESULT: 0.491

QUERY: Consider the sequence PQDSAYHSGIQ [FLG_Y3940_S3935P] and give its recorded phosphorylation enrichment.
RESULT: 0.553

QUERY: Consider the sequence SENAFYLSPHI [COL6A3_Y2827_D2831H] and give its recorded phosphorylation enrichment.
RESULT: 0.491

QUERY: Consider the sequence DLDPNYVLSSR [CKM_Y125] and give its recorded phosphorylation enrichment.
RESULT: 0.534

QUERY: Consider the sequence KNCFKYYMSDD [ATRX_Y203] and give its recorded phosphorylation enrichment.
RESULT: 0.572

QUERY: Consider the sequence RQIQSYTCEID [DES_Y331_H326R] and give its recorded phosphorylation enrichment.
RESULT: 0.474

These entries and their values trace back to the supplement of paper PMC10065799.
